Provenance of the data: ChEMBL document CHEMBL4265937

- Subject Of Test: Neuropilin-1 (Rattus norvegicus)
- Test: Inhibition of biotinylated VEGF-A165 binding to rat NRP1/FC chimera at 1 uM after 40 mins by ELISA relative to control
Non-standard residues stand in square brackets, D forms with d. Residues, ends and D or L forms follow the SMILES beside them. *: point of attachment. X1 = N=C(N)NCCCCCCCCCCC(=O)*; Dab = NCC[C@H](N)C(=O)O
Catalogue of inhibition readings, one per entry.
Could you give me the number in %? Just the number is fine.

Solved cases (3 shown):
{"Molecule": "N=C(N)NCCC[C@H](NC(=O)[C@@H]1CCCN1C(=O)[C@H](CN)NC(=O)[C@@H](N)CCCCNC(=O)C(N)CCCCN=C(N)N)C(=O)O (some centres undefined) (HELM PEPTIDE1{K.[NC[C@H](N[*:1])C(=O)[*:2]].P.R}|PEPTIDE2{[N=C(N)NCCCCC(N)C(=O)[*:2]]}$PEPTIDE1,PEPTIDE2,1:R3-1:R2$$$V2.0)", "inhibition / %": 82}
{"Molecule": "N=C(N)NCCCCCCCCCCC(=O)NCCCC[C@H](N)C(=O)N1CCC[C@H]1C(=O)N[C@@H](CCN)C(=O)N[C@@H](CCCNC(=N)N)C(=O)O (H-K(X1)P[Dab]R-OH)", "inhibition / %": 35.5}
{"Molecule": "C[C@H](NC(=O)[C@@H]1CCCN1C(=O)[C@@H](N)CCCCNC(=O)C(N)CCCCN=C(N)N)C(=O)N[C@@H](CCCNC(=N)N)C(=O)O (some centres undefined) (HELM PEPTIDE1{K.P.A.R}|PEPTIDE2{[N=C(N)NCCCCC(N)C(=O)[*:2]]}$PEPTIDE1,PEPTIDE2,1:R3-1:R2$$$V2.0)", "inhibition / %": 77.5}

Next:
Ask: Check the records and state inhibition for C[C@H](NC(=O)[C@H](CCCN)NC(=O)[C@@H](N)CCCCNC(=O)C(N)CCCCN=C(N)N)C(=O)N[C@@H](CCCNC(=N)N)C(=O)O (some centres undefined) (HELM PEPTIDE1{K.[Orn].A.R}|PEPTIDE2{[N=C(N)NCCCCC(N)C(=O)[*:2]]}$PEPTIDE1,PEPTIDE2,1:R3-1:R2$$$V2.0)
Result: 15.6

====

Catalogue of inhibition readings, one per entry.
- Subject Of Test: Neuropilin-1 (Rattus norvegicus)
- Test: Inhibition of biotinylated VEGF-A165 binding to rat NRP1/FC chimera at 0.3 uM after 40 mins by ELISA relative to control
Residues, ends and D or L forms follow the SMILES beside them.
Could you give me the number in %? Just the number is fine.

{"Compound": "N=C(N)NCCC[C@H](NC(=O)[C@H](CCCN)NC(=O)[C@@H]1CCCN1C(=O)[C@@H](N)CCCCNC(=O)C(N)CCCCN=C(N)N)C(=O)O (stereo partly drawn) (HELM PEPTIDE1{K.P.[Orn].R}|PEPTIDE2{[N=C(N)NCCCCC(N)C(=O)[*:2]]}$PEPTIDE1,PEPTIDE2,1:R3-1:R2$$$V2.0)", "Subject Of Test": "Neuropilin-1 (Rattus norvegicus)", "Numeric Readout": 11.1}
{"Compound": "N=C(N)NCCC[C@H](NC(=O)[C@@H]1CCCN1C(=O)[C@@H]1CCCN1C(=O)[C@@H](N)CCCCNC(=O)C(N)CCCCN=C(N)N)C(=O)O (stereo partly drawn) (HELM PEPTIDE1{K.P.P.R}|PEPTIDE2{[N=C(N)NCCCCC(N)C(=O)[*:2]]}$PEPTIDE1,PEPTIDE2,1:R3-1:R2$$$V2.0)", "Subject Of Test": "Neuropilin-1 (Rattus norvegicus)", "Numeric Readout": 4.7}

Ask: Check the records and state inhibition for N=C(N)NCCC[C@H](NC(=O)[C@H](CN)NC(=O)[C@@H]1CCCN1C(=O)[C@@H](N)CCCCNC(=O)C(N)CCCCN=C(N)N)C(=O)O (stereo partly drawn) (HELM PEPTIDE1{K.P.[NC[C@H](N[*:1])C(=O)[*:2]].R}|PEPTIDE2{[N=C(N)NCCCCC(N)C(=O)[*:2]]}$PEPTIDE1,PEPTIDE2,1:R3-1:R2$$$V2.0)
Result: 18.4

====

- Subject Of Test: UniProtKB Q9QWJ9
- Test: Inhibition of biotinylated VEGF-A165 binding to rat NRP1/FC chimera at 1 uM after 40 mins by ELISA relative to control
Non-standard residues stand in square brackets, D forms with d. Residues, ends and D or L forms follow the SMILES beside them. *: point of attachment. X2 = N=C(N)NCCCCCCC(=O)*; Dab = NCC[C@H](N)C(=O)O
Experimental Endpoint: inhibition (%)

{"Molecule": "N=C(N)NCCC[C@H](NC(=O)[C@H](CCCN)NC(=O)[C@@H]1CCCN1C(=O)[C@@H](N)CCCCNC(=O)C(N)CCCCN=C(N)N)C(=O)O (stereo not given in full) (HELM PEPTIDE1{K.P.[Orn].R}|PEPTIDE2{[N=C(N)NCCCCC(N)C(=O)[*:2]]}$PEPTIDE1,PEPTIDE2,1:R3-1:R2$$$V2.0)", "inhibition, %": 17.8}
{"Molecule": "C[C@H](NC(=O)[C@H](CN)NC(=O)[C@@H](N)CCCCNC(=O)C(N)CCCCN=C(N)N)C(=O)N[C@@H](CCCNC(=N)N)C(=O)O (stereo not given in full) (HELM PEPTIDE1{K.[NC[C@H](N[*:1])C(=O)[*:2]].A.R}|PEPTIDE2{[N=C(N)NCCCCC(N)C(=O)[*:2]]}$PEPTIDE1,PEPTIDE2,1:R3-1:R2$$$V2.0)", "inhibition, %": 25}

I: N=C(N)NCCC[C@H](NC(=O)[C@@H]1CCCN1C(=O)[C@@H]1CCCN1C(=O)[C@@H](N)CCCCN)C(=O)O (H-KPPR-OH)
II: N=C(N)NCCCCCCC(=O)NCCCC[C@H](N)C(=O)N1CCC[C@H]1C(=O)N[C@@H](CCN)C(=O)N[C@@H](CCCNC(=N)N)C(=O)O (H-K(X2)P[Dab]R-OH)
Ask: Identify the item whose inhibition is the smaller number: I or II When you have decided, please share the label of that item.
Result: I

====

- Subject Of Test: Neuropilin-1 (Rattus norvegicus) (UniProt Q9QWJ9)
- Test: Inhibition of biotinylated VEGF-A165 binding to rat NRP1/FC chimera at 0.3 uM after 40 mins by ELISA relative to control
Residues, ends and D or L forms follow the SMILES beside them.
Catalogue of inhibition readings, one per entry.
Could you give me the number in %? Just the number is fine.

Ask: Check the records and state inhibition for N=C(N)NCCCC(N)C(=O)NCCC[C@H](N)C(=O)N1CCC[C@H]1C(=O)N[C@@H](CCN)C(=O)N[C@@H](CCCNC(=N)N)C(=O)O (some centres undefined) (HELM PEPTIDE1{[Orn].P.[Dab].R}|PEPTIDE2{[N=C(N)NCCCC(N)C(=O)[*:2]]}$PEPTIDE1,PEPTIDE2,1:R3-1:R2$$$V2.0)
Result: 2.8

Ask: Check the records and state inhibition for N=C(N)NCCC[C@H](NC(=O)[C@H](CCN)NC(=O)[C@@H]1CCCN1C(=O)[C@@H](N)CCNC(=O)C(N)CCCCN=C(N)N)C(=O)O (some centres undefined) (HELM PEPTIDE1{[Dab].P.[Dab].R}|PEPTIDE2{[N=C(N)NCCCCC(N)C(=O)[*:2]]}$PEPTIDE1,PEPTIDE2,1:R3-1:R2$$$V2.0)
Result: 5.7

Ask: Check the records and state inhibition for N=C(N)NCCC[C@H](NC(=O)[C@H](CCN)NC(=O)[C@@H]1CCCN1C(=O)[C@@H](N)CCCCNC(=O)C(N)CCNC(=N)N)C(=O)O (some centres undefined) (HELM PEPTIDE1{K.P.[Dab].R}|PEPTIDE2{[N=C(N)NCCC(N)C(=O)[*:2]]}$PEPTIDE1,PEPTIDE2,1:R3-1:R2$$$V2.0)
Result: 5.7

Ask: Check the records and state inhibition for C[C@H](NC(=O)[C@H](CN)NC(=O)[C@@H](N)CCCCNC(=O)C(N)CCCCN=C(N)N)C(=O)N[C@@H](CCCNC(=N)N)C(=O)O (some centres undefined) (HELM PEPTIDE1{K.[NC[C@H](N[*:1])C(=O)[*:2]].A.R}|PEPTIDE2{[N=C(N)NCCCCC(N)C(=O)[*:2]]}$PEPTIDE1,PEPTIDE2,1:R3-1:R2$$$V2.0)
Result: 14.1

====

- Test: Half life in human plasma at 0.9 umol/ml by LC-MS analysis
- Type: ADME, cell-free
Residues, ends and D or L forms follow the SMILES beside them.
Experimental Endpoint: half-life at 900 µM (h)
Could you give me the number in h? Just the number is fine.

{"Compound": "N=C(N)NCCC[C@H](NC(=O)[C@@H]1CCCN1C(=O)[C@H](CN)NC(=O)[C@@H](N)CCCCNC(=O)C(N)CCCCN=C(N)N)C(=O)O (some centres undefined) (HELM PEPTIDE1{K.[NC[C@H](N[*:1])C(=O)[*:2]].P.R}|PEPTIDE2{[N=C(N)NCCCCC(N)C(=O)[*:2]]}$PEPTIDE1,PEPTIDE2,1:R3-1:R2$$$V2.0)", "Experimental Endpoint": "half-life at 900 µM", "Units Text": "h", "Numeric Readout": 34}
{"Compound": "C[C@H](NC(=O)[C@@H]1CCCN1C(=O)[C@@H](N)CCCCNC(=O)C(N)CCCCN=C(N)N)C(=O)N[C@@H](CCCNC(=N)N)C(=O)O (some centres undefined) (HELM PEPTIDE1{K.P.A.R}|PEPTIDE2{[N=C(N)NCCCCC(N)C(=O)[*:2]]}$PEPTIDE1,PEPTIDE2,1:R3-1:R2$$$V2.0)", "Experimental Endpoint": "half-life at 900 µM", "Units Text": "h", "Numeric Readout": 0.65}
{"Compound": "N=C(N)NCCC[C@H](NC(=O)[C@H](CCN)NC(=O)[C@@H]1CCCN1C(=O)[C@@H](N)CCCCNC(=O)C(N)CCCCN=C(N)N)C(=O)O (some centres undefined) (HELM PEPTIDE1{K.P.[Dab].R}|PEPTIDE2{[N=C(N)NCCCCC(N)C(=O)[*:2]]}$PEPTIDE1,PEPTIDE2,1:R3-1:R2$$$V2.0)", "Experimental Endpoint": "half-life at 900 µM", "Units Text": "h", "Numeric Readout": 0.733}

Ask: Check the records and state half-life at 900 µM for N=C(N)NCCC[C@H](NC(=O)[C@@H]1CCCN1C(=O)[C@H](CCN)NC(=O)[C@@H](N)CCCCNC(=O)C(N)CCCCN=C(N)N)C(=O)O (some centres undefined) (HELM PEPTIDE1{K.[Dab].P.R}|PEPTIDE2{[N=C(N)NCCCCC(N)C(=O)[*:2]]}$PEPTIDE1,PEPTIDE2,1:R3-1:R2$$$V2.0)
Result: 41
